system: Staphylococcus aureus ATCC25923; type: cell-based; settings: ATCC25923
Residues, ends and D or L forms follow the SMILES beside them.
readoutType: MIC S. aureus
Just so you know, I need the unit written after the number.

IN: For the molecule CC[C@H](C)[C@H](NC(=O)[C@H](CCCNC(=N)N)NC(=O)[C@H](CC(C)C)NC(=O)[C@H](CCC(N)=O)NC(=O)[C@@H](N)C(C)C)C(=O)N[C@@H](CCCNC(=N)N)C(=O)N[C@H](C(=O)N[C@@H](CCCNC(=N)N)C(=O)N[C@H](C(=O)N[C@H](C(=O)N[C@@H](CCCNC(=N)N)C(=O)N[C@@H](CCCCN)C(N)=O)[C@@H](C)CC)C(C)C)C(C)C [HH9, VQLRIRVRVIRK] (H-VQLRIRVRVIRK-NH2; N-terminus assumed) , give its measured MIC S. aureus value.
OUT: 12 µg/mL

IN: For the molecule CC[C@H](C)[C@H](NC(=O)[C@H](CCCNC(=N)N)NC(=O)[C@H](Cc1ccccc1)NC(=O)[C@H](CCCNC(=N)N)NC(=O)[C@@H](N)CCCCN)C(=O)N[C@@H](CCCNC(=N)N)C(=O)N[C@H](C(=O)N[C@@H](C)C(=O)N[C@H](C(=O)N[C@@H](CCCNC(=N)N)C(=O)N[C@@H](CCCNC(=N)N)C(=O)N[C@@H](C)C(N)=O)C(C)C)C(C)C [HH10, KRFRIRVAVRRA] (H-KRFRIRVAVRRA-NH2; N-terminus assumed) , give its measured MIC S. aureus value.
OUT: 25 µg/mL

IN: For the molecule CC[C@H](C)[C@H](NC(=O)[C@H](CCCNC(=N)N)NC(=O)[C@H](CC(C)C)NC(=O)[C@H](CCCNC(=N)N)NC(=O)[C@@H](N)C(C)C)C(=O)N[C@@H](CCCNC(=N)N)C(=O)N[C@H](C(=O)N[C@@H](C)C(=O)N[C@H](C(=O)N[C@@H](CCCNC(=N)N)C(=O)N[C@@H](CCCNC(=N)N)C(=O)N[C@@H](C)C(N)=O)C(C)C)C(C)C [HH7, VRLRIRVAVRRA] (H-VRLRIRVAVRRA-NH2) , give its measured MIC S. aureus value.
OUT: 12 µg/mL

IN: For the molecule CC[C@H](C)[C@H](N)C(=O)N[C@@H](CC(C)C)C(=O)N[C@@H](CCCCN)C(=O)N[C@@H](Cc1c[nH]c2ccccc12)C(=O)N[C@@H](CCCCN)C(=O)N[C@@H](Cc1c[nH]c2ccccc12)C(=O)N1CCC[C@H]1C(=O)N[C@@H](Cc1c[nH]c2ccccc12)C(=O)N[C@@H](Cc1c[nH]c2ccccc12)C(=O)N1CCC[C@H]1C(=O)N[C@@H](Cc1c[nH]c2ccccc12)C(=O)N[C@@H](CCCNC(=N)N)C(=O)N[C@@H](CCCNC(=N)N)C(N)=O , give its measured MIC S. aureus value.
OUT: 8 µg/mL

###

test system: Pseudomonas aeruginosa PAO1 strain H103; assay type: cell-based; details: PAO1
Residues, ends and D or L forms follow the SMILES beside them.
readoutType: MIC against P. aeruginosa PAO1

molecule="CC[C@H](C)[C@H](NC(=O)[C@H](Cc1c[nH]c2ccccc12)NC(=O)[C@@H](NC(=O)[C@H](Cc1c[nH]c2ccccc12)NC(=O)[C@H](CCCNC(=N)N)NC(=O)[C@H](CCCCN)NC(=O)[C@@H](N)CCCCN)C(C)C)C(=O)N[C@@H](CCCNC(=N)N)C(=O)N[C@@H](Cc1ccc(O)cc1)C(N)=O [HHC69, KKRWVWIRY] (H-KKRWVWIRY-NH2; N-terminus assumed)" endpointresult="4 to 12 µM"
molecule="CC[C@H](C)[C@H](NC(=O)[C@H](Cc1c[nH]c2ccccc12)NC(=O)[C@H](Cc1c[nH]c2ccccc12)NC(=O)[C@H](CCCCN)NC(=O)[C@H](CC(C)C)NC(=O)[C@H](CCCNC(=N)N)NC(=O)[C@H](CCCCN)NC(=O)[C@@H](N)CCCNC(=N)N)C(=O)N[C@@H](Cc1ccc(O)cc1)C(N)=O [HHC66, RKRLKWWIY] (H-RKRLKWWIY-NH2; N-terminus assumed)" endpointresult="4 to 12 µM"

With those in mind, consider the next molecule.
IN: For the molecule CC[C@H](C)[C@H](NC(=O)[C@H](CCCNC(=N)N)NC(=O)[C@H](CCCCN)NC(=O)[C@@H](NC(=O)[C@H](Cc1c[nH]c2ccccc12)NC(=O)[C@H](Cc1c[nH]c2ccccc12)NC(=O)[C@H](Cc1c[nH]c2ccccc12)NC(=O)[C@H](CCCNC(=N)N)NC(=O)[C@@H](N)CC(C)C)[C@@H](C)CC)C(N)=O [HHC57, LRWWWIKRI] (H-LRWWWIKRI-NH2; N-terminus assumed) , give its measured MIC against P. aeruginosa PAO1 value.
OUT: 4 to 12 µM

###

system: wild-type Salmonella enterica ssp. typhimurium; type: cell-based
Residues, ends and D or L forms follow the SMILES beside them.
hey, just use Met if measured MIC S. typhi is less than 10 µg/mL, otherwise Not met

compound="CC[C@H](C)[C@H](NC(=O)[C@H](CCCNC(=N)N)NC(=O)[C@H](CC(C)C)NC(=O)[C@H](CCC(N)=O)NC(=O)[C@@H](N)C(C)C)C(=O)N[C@@H](CCCNC(=N)N)C(=O)N[C@H](C(=O)N[C@@H](C)C(=O)N[C@H](C(=O)N[C@H](C(=O)N[C@@H](CCCNC(=N)N)C(=O)N[C@@H](C)C(N)=O)[C@@H](C)CC)C(C)C)C(C)C [HH2, VQLRIRVAVIRA] (H-VQLRIRVAVIRA-NH2)" categorylabel="Not met"
compound="CC[C@H](C)[C@H](N)C(=O)N[C@@H](CC(C)C)C(=O)N1CCC[C@H]1C(=O)N[C@@H](Cc1c[nH]c2ccccc12)C(=O)N[C@@H](CCCCN)C(=O)N[C@@H](Cc1c[nH]c2ccccc12)C(=O)N1CCC[C@H]1C(=O)N[C@@H](Cc1c[nH]c2ccccc12)C(=O)N[C@@H](Cc1c[nH]c2ccccc12)C(=O)N[C@@H](CCCCN)C(=O)N[C@@H](Cc1c[nH]c2ccccc12)C(=O)N[C@@H](CCCNC(=N)N)C(=O)N[C@@H](CCCNC(=N)N)C(N)=O [HH117, ILPWKWPWWKWRR] (H-ILPWKWPWWKWRR-NH2; N-terminus assumed)" categorylabel="Not met"
compound="CC[C@H](C)[C@H](NC(=O)[C@H](CCCNC(=N)N)NC(=O)[C@H](CC(C)C)NC(=O)[C@H](CCC(N)=O)NC(=O)[C@@H](N)C(C)C)C(=O)N[C@@H](CCCNC(=N)N)C(=O)N[C@H](C(=O)N[C@@H](CCCNC(=N)N)C(=O)N[C@H](C(=O)N[C@H](C(=O)N[C@@H](CCCNC(=N)N)C(=O)N[C@@H](CCCCN)C(N)=O)[C@@H](C)CC)C(C)C)C(C)C [HH9, VQLRIRVRVIRK] (H-VQLRIRVRVIRK-NH2; N-terminus assumed)" categorylabel=Met
compound="CC[C@H](C)[C@H](N)C(=O)N[C@@H](Cc1c[nH]c2ccccc12)C(=O)N[C@H](C(=O)N[C@H](C(=O)N[C@@H](Cc1c[nH]c2ccccc12)C(=O)N[C@@H](CCCNC(=N)N)C(=O)N[C@@H](CCCNC(=N)N)C(N)=O)[C@@H](C)CC)C(C)C [HH18, IWVIWRR-NH2] (H-IWVIWRR-NH2; N-terminus assumed)" categorylabel="Not met"

Continue with the compound presented below.
IN: Is MIC S. typhi of CC[C@H](C)[C@H](NC(=O)[C@H](CCCNC(=N)N)NC(=O)[C@H](C)NC(=O)[C@H](CC(C)C)NC(=O)[C@@H](N)CCCNC(=N)N)C(=O)N[C@H](C(=O)N[C@H](C(=O)N[C@H](C(=O)N[C@@H](CCCNC(=N)N)C(=O)N[C@H](C(=O)N[C@@H](C)C(=O)N[C@@H](CCCNC(=N)N)C(N)=O)C(C)C)[C@@H](C)CC)C(C)C)C(C)C [Bac2A, RLARIVVIRVAR-NH2, reference compound] (H-RLARIVVIRVAR-NH2; N-terminus assumed) strictly below 10 µg/mL?
OUT: Not met

###

Listing of entries alongside the reported Chemokine induction MCP-3.
system: MCP-3 release by human PBMC; assay: Chemokine induction in PBMC (capture ELISA); assay type: cell-based; conditions: 20 μg/ml peptide, background (6) subtracted
Residues, ends and D or L forms follow the SMILES beside them.
Just so you know, I need the unit written after the number.

IN: For the compound CC[C@H](C)[C@H](NC(=O)[C@H](Cc1ccccc1)NC(=O)[C@H](CCCCN)NC(=O)[C@H](Cc1ccccc1)NC(=O)[C@H](CCCNC(=N)N)NC(=O)[C@@H](N)CCCNC(=N)N)C(=O)N[C@@H](CCCNC(=N)N)C(=O)N[C@@H](Cc1c[nH]c2ccccc12)C(=O)N[C@@H](Cc1c[nH]c2ccccc12)C(N)=O [HHC100, RRFKFIRWW] (H-RRFKFIRWW-NH2; N-terminus assumed) , give its measured Chemokine induction MCP-3 value.
OUT: -1 pg/mL

IN: For the compound N=C(N)NCCC[C@H](NC(=O)[C@H](CCCNC(=N)N)NC(=O)[C@@H](N)Cc1ccccc1)C(=O)N[C@@H](Cc1c[nH]c2ccccc12)C(=O)N[C@@H](Cc1c[nH]c2ccccc12)C(=O)N[C@@H](CCCCN)C(=O)N[C@@H](Cc1c[nH]c2ccccc12)C(=O)N[C@@H](Cc1ccccc1)C(=O)N[C@@H](CCCCN)C(N)=O [HHC53, FRRWWKWFK] (H-FRRWWKWFK-NH2; N-terminus assumed) , give its measured Chemokine induction MCP-3 value.
OUT: -1 pg/mL

IN: For the compound CC(C)[C@H](NC(=O)[C@H](CCCNC(=N)N)NC(=O)[C@H](Cc1ccccc1)NC(=O)[C@H](CCCNC(=N)N)NC(=O)[C@H](Cc1ccccc1)NC(=O)[C@H](CCCNC(=N)N)NC(=O)[C@H](Cc1ccccc1)NC(=O)[C@H](CCC(N)=O)NC(=O)[C@@H](N)Cc1c[nH]cn1)C(=O)N[C@@H](CCCNC(=N)N)C(=O)N[C@@H](CCCNC(=N)N)C(=O)N[C@@H](CCCCN)C(N)=O [HH13, HQFRFRFRVRRK] (H-HQFRFRFRVRRK-NH2; N-terminus assumed) , give its measured Chemokine induction MCP-3 value.
OUT: 40 pg/mL
